ASSAYED_SYSTEM: T1, mouse MAdCAM expressed on cells (mouse, UniProt Q61826 22-405)
T1 construct: whole, on cells
T1 sequence (looked up): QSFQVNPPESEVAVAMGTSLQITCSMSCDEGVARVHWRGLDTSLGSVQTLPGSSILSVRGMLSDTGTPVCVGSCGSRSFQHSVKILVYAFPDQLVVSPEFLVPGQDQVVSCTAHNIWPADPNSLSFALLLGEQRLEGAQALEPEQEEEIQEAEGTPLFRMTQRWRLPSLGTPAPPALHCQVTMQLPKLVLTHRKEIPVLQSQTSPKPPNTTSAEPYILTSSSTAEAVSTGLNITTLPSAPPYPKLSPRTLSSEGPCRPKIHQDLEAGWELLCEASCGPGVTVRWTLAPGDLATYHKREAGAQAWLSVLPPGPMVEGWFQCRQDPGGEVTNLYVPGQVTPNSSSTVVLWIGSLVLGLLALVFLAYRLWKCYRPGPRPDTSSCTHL
ASSAY_NAME: cell binding
READOUT_TYPE: binding result

The cases that follow already have their binding result on record.
binder="MAdCAM Antibody Table 2 Clone 61 (antibody, human IgG1, V domains shown) VH: QVQLVQSGAEVKKPGASVKVSCKASGDTFTGYYIHWVRQAPGQGLEWMGWINPNSGGTNYAQKFQGRVTMTRDTSTSTVYMELSSLRSEDTAVYYCARSGLWLGSYYGMDVWGQGTLVTVSS VL: DIQMTQSPSSLSASVGDRVTITCRASQTISIWLAWYQQKPGKAPKLLIYDASTLQSGVPSRFSGSGSGTDFTLTISSLQPEDFATYYCQQYSSYPLTFGQGTKVEIK" reported_value="no binding"
binder="MAdCAM Antibody Table 2 Clone 76 (antibody, human IgG1, V domains shown) VH: EVQLLESGGGLVQPGGSLRLSCAASGFTFDDYTMHWVRQAPGKGLEWVSDISGSGGSTYYADSVKGRFTISRDNSKNTLYLQMNSLRAEDTAVYYCAKDVVVAGTPLHFDYWGQGTLVTVSS VL: DIQMTQSPSSLSASVGDRVTITCQASQDISNYLNWYQQKPGKAPKLLIYAASYLQSGVPSRFSGSGSGTDFTLTISSLQPEDFATYYCQQAHNYPITFGQGTRLEIK" reported_value=binds
binder="MAdCAM Antibody Table 2 Clone 8 (antibody, human IgG1, V domains shown) VH: QVQLVQSGAEVKKPGASVKVSCKASGYTFTGYHIHWVRQAPGQGLEWMGIINPSGGSTIYAQKFQGRVTMTRDTSTSTVYMELSSLRSEDTAVYYCAKDWSSWYLGPFDYWGQGTLVTVSS VL: DIQMTQSPSSLSASVGDRVTITCRASQNISSSLNWYQQKPGKAPKLLIYAASSLQSGVPSRFSGSGSGTDFTLTISSLQPEDFATYYCQQSYTTPYTFGQGTKVEIK" reported_value=binds
binder="MAdCAM Antibody Table 2 Clone 11 (antibody, human IgG1, V domains shown) VH: EVQLLESGGGLVQPGGSLRLSCAASGFTFSDYYMNWVRQAPGKGLEWVSVIGESGGSTYYADSVKGRFTISRDNSKNTLYLQMNSLRAEDTAVYYCAADPVSRWPKHGGGDYWGQGTLVTVSS VL: DIQMTQSPSSLSASVGDRVTITCRASQGISSSLAWYQQKPGKAPKLLIYAASTLQSGVPSRFSGSGSGTDFTLTISSLQPEDFATYYCQQSYSTPWTFGQGTKVEIK" reported_value=binds

Recorded binding result of MAdCAM Antibody Table 2 Clone 69 (antibody, human IgG1, V domains shown) VH: QVQLVQSGAEVKKPGASVKVSCKASGYTFTSYYMHWVRQAPGQGLEWMGIIDPSGGSTSYAQKFQGRVTMTRDTSTSTVYMELSSLRSEDTAVYYCAREEWSSGGVGYFDYWGQGTLVTVSS VL: DIQMTQSPSSLSASVGDRVTITCRASQGISSYLAWYQQKPGKAPKLLIYATSSLQTGVPSRFSGSGSGTDFTLTISSLQPEDFATYYCQQTYSIPITFGQGTRLEIK , please.
no binding

Recorded binding result of MAdCAM Antibody Table 2 Clone 38 (antibody, human IgG1, V domains shown) VH: QVQLVQSGAEVKKPGASVKVSCKASGYTFTDYFLHWVRQAPGQGLEWMGWMNPTSGNTGYAQKFQGRVTMTRDTSTSTVYMELSSLRSEDTAVYYCAREGEGSGFDYWGQGTLVTVSS VL: DIQMTQSPSSLSASVGDRVTITCRASQGINSWLAWYQQKPGKAPKLLIYDASNLETGVPSRFSGSGSGTDFTLTISSLQPEDFATYYCQQSYSTPLTFGGGTKVEIK , please.
no binding

Recorded binding result of MAdCAM Antibody Table 2 Clone 37 (antibody, human IgG1, V domains shown) VH: EVQLLESGGGLVQPGGSLRLSCAASGFTFSDYGMPWVRQAPGKGLEWVSAISGSGGSTYYADSVKGRFTISRDNSKNTLYLQMNSLRAEDTAVYYCARDGGWQPAAILDYWGQGTLVTVSS VL: DIQMTQSPSSLSASVGDRVTITCRASQGISNNLNWYQQKPGKAPKLLIYDASNLETGVPSRFSGSGSGTDFTLTISSLQPEDFATYYCQQSYSTPLTFGQGTKVEIK , please.
no binding

Recorded binding result of MAdCAM Antibody Table 2 Clone 33 (antibody, human IgG1, V domains shown) VH: QVQLVQSGAEVKKPGASVKVSCKASGYTLTTWYMYWVRQAPGQGLEWMGWINPNRGATNYAQKFQGRVTMTRDTSTSTVYMELSSLRSEDTAVYYCAKGDLWGAMDVWGQGTTVTVSS VL: DIQMTQSPSSLSASVGDRVTITCRASDNIGSWLAWYQQKPGKAPKLLIYAASSLQSGVPSRFSGSGSGTDFTLTISSLQPEDFATYYCQQGYSTPPTFGQGTKVEIK , please.
no binding

Recorded binding result of MAdCAM Antibody Table 2 Clone 60 (antibody, human IgG1, V domains shown) VH: EVQLLESGGGLVQPGGSLRLSCAASGFTFSDHGMHWVRQAPGKGLEWVSVIYGGESTYYADSVKGRFTISRDNSKNTLYLQMNSLRAEDTAVYYCARDPAVAGGGIFDYWGQGTLVTVSS VL: DIQMTQSPSSLSASVGDRVTITCRASQGISNYLAWYQQKPGKAPKLLIYDASNLETGVPSRFSGSGSGTDFTLTISSLQPEDFATYYCQQSYSTCYTFGQGTKLEIK , please.
binds

Recorded binding result of MAdCAM Antibody Table 2 Clone 20 (antibody, human IgG1, V domains shown) VH: EVQLLESGGGLVQPGGSLRLSCAASGFTFSDSAMHWVRQAPGKGLEWVSAISGSGSTIYYADSVKGRFTISRDNSKNTLYLQMNSLRAEDTAVYYCVSDIAVAGHWYFDLWGRGTLVTVSS VL: DIQMTQSPSSLSASVGDRVTITCRASQSISTFLNWYQQKPGKAPKLLIYAASRLEGGVPSRFSGSGSGTDFTLTISSLQPEDFATYYCQQANSFPLTFGPGTKVDIK , please.
no binding
